These entries and their values trace back to the supplement of paper PMC11208160.

- test: recombinant barcode read abundance after kanamycin selection (control-corrected) (log10(CPM+1)); higher = more efficient recombination; sequences stand for … in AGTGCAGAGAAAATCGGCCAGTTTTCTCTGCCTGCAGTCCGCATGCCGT…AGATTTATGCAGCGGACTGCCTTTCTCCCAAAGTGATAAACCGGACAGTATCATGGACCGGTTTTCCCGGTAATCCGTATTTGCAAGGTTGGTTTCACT; site = the 11-nt target
Recorded recombinant barcode read abundance (log10) for the following sequences
measured.property: recombinant barcode read abundance (log10)

{"columns": ["seq.string", "assay.result"],
 "data": [
  ["AAGATATCTTGGGTTCTAACCTGTTGCCT (site AAGATATCTAG)", 1.86],
  ["CACTTGGCTTGGGTTCTAACCTGTTGCAG (site CACTTGGCTCT)", 0.706],
  ["GTGGATGCTTGGGTTCTAACCTGTTGCCT (site GTGGATGCTAG)", 1.6],
  ["TCCTAGTCTTGGGTTCTAACCTGTTGCAG (site GGTCCTCCTTC)", 0.0984],
  ["TAGGTACCTTGGGTTCTAACCTGTTGCAT (site TAGGTCCCTAT)", 0.223]
]}

---

// recombinant UMI read abundance (log10) lookup, one value per entry
- test: recombinant UMI read abundance after kanamycin selection (control-corrected) (log10(CPM+1)); higher = more efficient recombination; extreme values may be limits of the assay; sequences stand for … in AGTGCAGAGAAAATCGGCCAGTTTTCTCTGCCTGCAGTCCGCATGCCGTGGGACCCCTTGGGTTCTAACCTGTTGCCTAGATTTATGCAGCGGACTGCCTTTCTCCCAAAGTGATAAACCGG…AGGTTGGTTTCACT; site = the 11-nt donor

{"columns": ["seq.string", "recombinant UMI read abundance (log10)"],
 "data": [
  ["TAAAATACATGGACCGGTTTTCCCGGTAATCCGTATTTGCA (site TATAATACTTG)", 0.614],
  ["GGAGCACCATGGACCGGTTTTCCCGGTAATCCGTATTTGCA (site GGCGCACCTTG)", 0],
  ["CTACCAACATGGACCGGTTTTCCCGGTAATCCGTATTTGGA (site CTACTAACTTC)", 0.0192],
  ["ACTAGAGCATGGACCGGTTTTCCCGGTAATCCGTATTTGAG (site ACTAGAACTCT)", 1.52],
  ["GCTTAGACATGGACCGGTTTTCCCGGTAATCCGTATTTGGC (site GCTTAGACTGC)", 2.37],
  ["ATTCGAGCATGGACCGGTTTTCCCGGTAATCCGTATTTGCA (site TTTCGAGCTTG)", 0.947]
]}

---

- test: recombinant barcode read abundance after kanamycin selection (control-corrected) (log10(CPM+1)); higher = more efficient recombination; sequences stand for … in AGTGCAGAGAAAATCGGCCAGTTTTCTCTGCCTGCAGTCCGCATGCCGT…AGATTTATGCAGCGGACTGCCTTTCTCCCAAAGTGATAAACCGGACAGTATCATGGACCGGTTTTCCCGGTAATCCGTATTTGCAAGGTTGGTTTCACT; site = the 11-nt target
measured.property: recombinant barcode read abundance (log10)

{"columns": ["seq.string", "assay.result"],
 "data": [
  ["GAGATATCTTGGGTTCTAACCTGTTGCCT (site GAGATATCTAG)", 2.07],
  ["CTTTGAACTTGGGTTCTAACCTGTTGCTA (site CTTTGAACTTA)", 0.016],
  ["GTCATGCCTTGGGTTCTAACCTGTTGCCT (site GTCATGCCTAG)", 1.1],
  ["AGAAGTCCTTGGGTTCTAACCTGTTGCCG (site AGAAGTCCTCG)", 0.971],
  ["ACCAATCCTTGGGTTCTAACCTGTTGCCT (site ACCAATCCTAG)", 0.21],
  ["GAGTGAGCTTGGGTTCTAACCTGTTGCGT (site GAGTGAGCTAC)", 3],
  ["GAGATATCTTGGGTTCTAACCTGTTGCCT (site GAGACATCTAG)", 0.339],
  ["TGTGCTCCTTGGGTTCTAACCTGTTGCAG (site TGTGCTCCTCT)", 0.113],
  ["GGATAGCCTTGGGTTCTAACCTGTTGCTT (site GGATAGCCTAA)", 0.939],
  ["TAGAATCCTTGGGTTCTAACCTGTTGCAC (site TAGAATCCTTT)", 0.103],
  ["GCCAGACCTTGGGTTCTAACCTGTTGCCT (site GCCAGACCTAG)", 0.373],
  ["TGACATTCTTGGGTTCTAACCTGTTGCTT (site TGACATTCTAA)", 0.13],
  ["CAGCAAGCTTGGGTTCTAACCTGTTGCCT (site CAGTACGCTAG)", 0.0513],
  ["CTAACTGCTTGGGTTCTAACCTGTTGCGG (site CTAACTCCTCA)", 0.0417],
  ["ACAGTATCTTGGGTTCTAACCTGTTGCTG (site ACAGTATCTCA)", 0.479],
  ["CATTATCCTTGGGTTCTAACCTGTTGCCT (site CAATATCCTAG)", 0.0661]
]}
